These data points were gathered from paper PMC8922279.

# Test summary: in vivo
# Measurement context: female, 129sv DHP-1 knockout, mouse, sc, 50 mg/kg
Reported AUC(0-t) values follow for various compounds
Experimental readout: AUC(0-t)

                                   compound         result
0  C=CC1=C(C(=O)O)N2C(=O)[C@@H](NC(=O)/C(=N\O)c3csc(N)n3)[C@H]2SC1 [Cefdinir, reference compound]   4.63 µg·h/mL
1  C[C@@H](O)[C@H]1C(=O)N2C(C(=O)O)=C(S[C@@H]3CN[C@H](C(=O)N(C)C)C3)[C@H](C)[C@H]12 [Meropenem, reference compound]  0.387 µg·h/mL
2  O=C(O)C1=C(CSc2cccc[n+]2[O-])CS[C@@H]2[C@H](NC(=O)/C(=N\Oc3ccccc3)c3ccco3)C(=O)N12   7.92 µg·h/mL
